Property: inhibition; scope: individual compounds
# target desc: Muscarinic acetylcholine receptor M1 (Homo sapiens)
# measurement protocol: CHRM1 blockers of acetylcholine calcium response – CHO-K1 cells, Fluo-8 calcium fluorescence, 1536-well, primary screen (AID 588852);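 also: peak over basal fluorescence ratio during 140 s after agonist addition; 0% = ACh EC80 plus DMSO and 100% = DMSO alone without agonist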
# test context: CHO-K1 hM1, Fluo-8 calcium fluorescence, ACh EC80 antagonist; at 3 µM; hits give high values
The whole screen tested about 360,000 compounds, of which about 4,600 (1.3%) were called active. The full list was thinned out, with actives kept by preference.
All answers are understood in %, so give the number only.

compound	inhibition / %
Cc1ccc(C)c(N2CCN(C(=O)CCCCCn3c(=S)[nH]c4ccc(N5CCOCC5)cc4c3=O)CC2)c1	39.5

*Q* Query the reported inhibition for Muscarinic acetylcholine receptor M1 (Homo sapiens); item: "CN(C)c1ccc(/C=C2\NC(=S)N(Cc3ccccc3)C2=O)cc1"
*A* 68.3

*Q* Request: inhibition, test system Muscarinic acetylcholine receptor M1 (Homo sapiens), entry "COc1ccc(-c2ccc(C(=O)NCCN3CCOCC3)c3occc23)c(C)c1"
*A* 1.54

*Q* Lookup: inhibition / Muscarinic acetylcholine receptor M1 (Homo sapiens) / O=C(N=C1SC2CS(=O)(=O)CC2N1c1ccccc1)c1ccccc1 (stereo not given)
*A* -9.89

*Q* # returns recorded inhibition (system: Muscarinic acetylcholine receptor M1 (Homo sapiens)) for "CCOc1cc(/C=N/NC(=O)c2ccc(CSc3nncn3C)cc2)ccc1OCC(=O)N1CCOCC1"
*A* -1.07

*Q* Form field: inhibition recorded for "O=C(CSc1nc(=O)n2ccccc2n1)Nc1ccc2c(c1)OCCO2" with Muscarinic acetylcholine receptor M1 (Homo sapiens) (enter value)
*A* 35.3

*Q* Quick check: inhibition on Muscarinic acetylcholine receptor M1 (Homo sapiens), item "COc1ccccc1OCCCCCCN1CCN(C)CC1" ?
*A* -0.37

*Q* // lookup inhibition | system=Muscarinic acetylcholine receptor M1 (Homo sapiens) | key= "NC(=O)CC[C@@H]1NC(=O)[C@@H]2CCCN2C(=O)c2cc([N+](=O)[O-])cc(F)c2NCCC[C@@H](C(N)=O)NC1=O"
*A* -13.1

*Q* Given the entry "CN(Cc1ccc(F)cc1Cl)S(=O)(=O)c1cccs1" , what inhibition was observed with Muscarinic acetylcholine receptor M1 (Homo sapiens)?
*A* -6.7

*Q* Reported inhibition for Muscarinic acetylcholine receptor M1 (Homo sapiens), given "COc1ccc(CN(C)C(=O)Cc2c[nH]c3ccccc23)c(OC)c1OC" ?
*A* -18.1

*Q* inhibition of "CCN(CCCNC(=O)c1ccc2c(c1)NC(=O)CN2C)c1cccc(C)c1" on Muscarinic acetylcholine receptor M1 (Homo sapiens)?
*A* 8.18

*Q* Given the entry "COc1ccc(-c2cc(C(=O)N(C)CC(=O)Nc3ccccc3Cl)c3ccccc3n2)cc1OC" , what inhibition was observed with Muscarinic acetylcholine receptor M1 (Homo sapiens)?
*A* 21

*Q* Find inhibition (Muscarinic acetylcholine receptor M1 (Homo sapiens)) for the entry Cc1cccc(C(=O)OC(C)CN2CCN(C)CC2)c1 (stereo not given)
*A* -1.32

*Q* Request - read-out inhibition | tested on Muscarinic acetylcholine receptor M1 (Homo sapiens) | compound "Cc1cccc(NC(=S)N2CCC(c3nc4ccccc4s3)CC2)c1"
*A* 6.88

*Q* What is its inhibition for Muscarinic acetylcholine receptor M1 (Homo sapiens)? Entry: "Fc1ccccc1CCNc1nnnn1-c1ccccc1"
*A* -15.4

*Q* State its inhibition on Muscarinic acetylcholine receptor M1 (Homo sapiens): "O=C(c1cccs1)N1CCC(c2nc3ccccc3s2)CC1"
*A* -0.25

*Q* For the record Cc1nn(-c2ccccc2)nc1C(=O)OCC(=O)N1CCCCC1C (stereo not given) , what value of inhibition is listed for Muscarinic acetylcholine receptor M1 (Homo sapiens)?
*A* 3.01

*Q* # get_value(readout= inhibition, system= Muscarinic acetylcholine receptor M1 (Homo sapiens)) for "O=C(Nn1cnnc1)c1cc(Cl)ccc1Cl"
*A* -9.41
